Molecular target: E-selectin (Homo sapiens) (UniProt P16581)
Sequence (P16581 whole entry, looked up): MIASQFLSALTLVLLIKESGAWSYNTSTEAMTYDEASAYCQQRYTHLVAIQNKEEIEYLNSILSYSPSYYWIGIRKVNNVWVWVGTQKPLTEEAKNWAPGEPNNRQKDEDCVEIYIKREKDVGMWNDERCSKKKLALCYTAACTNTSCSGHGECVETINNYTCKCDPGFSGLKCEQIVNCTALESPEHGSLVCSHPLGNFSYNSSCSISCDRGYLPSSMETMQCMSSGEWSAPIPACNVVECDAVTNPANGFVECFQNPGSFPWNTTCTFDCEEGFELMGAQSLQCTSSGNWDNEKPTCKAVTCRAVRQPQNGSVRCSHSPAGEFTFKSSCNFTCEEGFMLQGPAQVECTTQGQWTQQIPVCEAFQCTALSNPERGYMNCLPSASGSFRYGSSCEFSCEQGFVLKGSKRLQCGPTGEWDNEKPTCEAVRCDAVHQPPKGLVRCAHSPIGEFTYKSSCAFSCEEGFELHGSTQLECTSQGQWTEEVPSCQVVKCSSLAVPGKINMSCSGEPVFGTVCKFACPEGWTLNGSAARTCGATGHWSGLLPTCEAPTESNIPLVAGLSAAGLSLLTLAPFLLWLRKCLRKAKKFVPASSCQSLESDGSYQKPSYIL
Experiment: inducers of endothelial E-selectin expression – imaging, HUVEC, immunofluorescence imaging, single point, primary screen (AID 686992);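 also: measured in HUVEC primary endothelial cells; signal is the percent of cells scored E-selectin positive by PE staining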
Settings: at 7.58 µM, hits give high values, normalized: neutral wells 0, TNF-alpha wells 100
Among all 260,000 compounds or so, about 960 (0.37%) were called active. Only a selection was taken, and actives are over-represented in it overall.
Catalogue of activation readings, one per entry.

Here's what some known entries look like.
C[C@H]1CN([C@@H](C)CO)C(=O)Cc2cc(NC(=O)Cc3cn(C)c4ccccc34)ccc2O[C@@H]1CN(C)Cc1ccccc1 : 0.509% (inactive)
C[C@H]1CN([C@@H](C)CO)C(=O)Cc2cc(NC(=O)Nc3ccc(F)cc3)ccc2O[C@H]1CN(C)C(=O)Nc1ccc(C(F)(F)F)cc1 : 29.7% (active)
C[C@@H]1CN([C@H](C)CO)C(=O)c2cccc(NC(=O)c3cnccn3)c2O[C@@H]1CN(C)Cc1ccncc1 : -11.9% (inactive)
C[C@H]1CN([C@@H](C)CO)C(=O)c2cccc(NC(=O)c3cnccn3)c2O[C@@H]1CN(C)Cc1ccc(Oc2ccccc2)cc1 : 0.0435% (inactive)
Cc1cc2ccccc2n1CCNC(=O)COc1ccc2ccccc2c1 : 51.8% (active)
CCOC(=O)[C@]12CCC=C1N(Cc1ccco1)C(=O)[C@H](CC(=O)NCc1cccc(C(F)(F)F)c1)C2 : -0.145% (inactive)
CC1=C(C(=O)N(C(C)C)C(C)C)CC(CC(=O)NCCCCc2ccccc2)C(=O)N1CCC1=CCCCC1 (stereo unspecified) : 1.3% (inactive)
CCC(=O)Nc1ccc2c(c1)OC[C@H](C)N(CC1CCOCC1)C[C@@H](C)[C@@H](OC)CN(C)C2=O : 0.195% (inactive)
COc1ccc(C2c3[nH]c4ccccc4c3C[C@H]3C(=O)N(CC(C)C)CC(=O)N23)c(OC)c1 (stereo partly specified) : 61.1% (active)
CC(C)NC(=O)Nc1ccc2c(c1)C(=O)N([C@@H](C)CO)C[C@@H](C)[C@H](CN(C)Cc1ccc(-c3ccccc3)cc1)O2 : 0.764% (inactive)

In: Recorded activation for C[C@H](CO)N1C[C@H](C)[C@@H](CN(C)Cc2ccc(C(F)(F)F)cc2)Oc2ccc(NC(=O)CCC(F)(F)F)cc2C1=O , please?
Out: 63.1% (active)

====

Biological target: E-selectin (Homo sapiens) (UniProt P16581)
Assay: inducers of endothelial E-selectin expression – imaging, HUVEC, immunofluorescence imaging, single point, primary screen (AID 686992)
Conditions: at 7.58 µM, hits give high values, normalized: neutral wells 0, TNF-alpha wells 100
Out of some 260,000 compounds screened, about 960 (0.37%) were called active. This excerpt belongs to a sample that is enriched for actives.
Catalogue of activation readings, one per entry.

CC1=C(C(=O)N2CCOCC2)CC(CC(=O)NCc2ccco2)C(=O)N1Cc1ccc(F)cc1 (centres undefined) : 8.96% (inactive)
CC(Sc1ccc(S(=O)(=O)N2CCN(C)CC2)cn1)C(=O)NC1CCCC(C)C1C (centres undefined) : -0.0545% (inactive)
O=S(=O)(NCC1CC1)c1ccc(F)c(Cl)c1 : -0.0605% (inactive)

In: Recorded activation for COC(=O)N1Cc2ccnnc2CC1c1ccccc1Br (centres undefined) , please?
Out: -0.184% (inactive)

In: Then Cc1cc(N2CCN(C(=O)OC(C)(C)C)C[C@H]2C)ccc1N1CCN(Cc2ccccc2)[C@H](C)C1 ?
Out: 0.115% (inactive)

In: Then COC(=O)[C@@H]1[C@@H](CO)[C@@H]2Cn3c(ccc(-c4ccc(OC)cc4)c3=O)[C@@H]2N1C ?
Out: 0.459% (inactive)

In: Then O=C(CCCn1c(=O)c2sccc2n(CC(=O)NCC2CCCO2)c1=O)NCc1ccco1 (centres undefined) ?
Out: 8.64% (inactive)

In: Then O=C(Cc1ccc(-n2c(=O)c3sccc3n(Cc3ccc(F)cc3)c2=O)cc1)NCc1ccco1 ?
Out: 159% (active)

In: Then COc1cccc2c1C(=O)c1c(O)c3c(c(O)c1C2=O)CC(O)(C(C)=NNC(=O)c1ccc(Cl)c(Cl)c1)CC3OC1CC(N)C(O)C(C)O1 (centres undefined) ?
Out: 160% (active)

====

Target: E-selectin (Homo sapiens) (UniProt P16581)
Experiment: inducers of endothelial E-selectin expression – imaging, HUVEC, immunofluorescence imaging, single point, primary screen (AID 686992)
Conditions: at 7.58 µM, hits give high values, normalized: neutral wells 0, TNF-alpha wells 100
Screen size: about 260,000 compounds; about 960 (0.37%) were called active. The full list was thinned out, with actives kept by preference.
Catalogue of activation readings, one per entry.
All answers are understood in %, so give the number only.

COC(=O)C1=C(C)N(Cc2ccc(C(F)(F)F)cc2)C(=NCc2ccc(C(F)(F)F)cc2)NC1c1cccc(Cl)c1 (centres undefined) : -0.458
COc1ccc(NC(=O)C(c2ccncc2)n2c(=O)c(-c3cc4ccccc4[nH]3)nc3ccccc32)cc1 (centres undefined) : 0.124
COc1ccc2c3c(n(C)c2c1)[C@@H](CO)N(Cc1ccccc1OC)CC31CN(CC2CCOCC2)C1 : -0.609

In: Recorded activation for Cc1nc(-c2ccc(F)cc2)c(CC(=O)Nc2cc(S(=O)(=O)N3CCCCC3)ccc2C)s1 , please?
Out: -1.09

====

Biological target: E-selectin (Homo sapiens)
Test: inducers of endothelial E-selectin expression – imaging, HUVEC, immunofluorescence imaging, single point, primary screen (AID 686992);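 also: measured in HUVEC primary endothelial cells; signal is the percent of cells scored E-selectin positive by PE staining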
Conditions: at 7.58 µM, hits give high values, normalized: neutral wells 0, TNF-alpha wells 100
About 960 (0.37%) of roughly 260,000 compounds were called active. Many of the other results were omitted from the sample, so actives are more common in it than they were.
endpoint_name: activation (%)
All answers are understood in %, so give the number only.

In: Recorded activation for CCOc1ccc(NC(=O)CC2C(=O)N(c3ccccc3)C(=O)N2CCOC)cc1 (stereo not given) , please?
Out: -0.224

In: Then CC[C@@H](C)[C@H](NC(=O)CCc1c(C)c2cc3c4c(oc3c(C)c2oc1=O)CCCC4)C(=O)O ?
Out: -0.004

In: Then COc1ccc(N2CCN(C(=O)c3ccccc3NC(=O)C3=C(C)OCCS3)CC2)cc1 ?
Out: 54.3

In: Then COc1ccc(C(=O)Nc2ccccc2C(=O)N2CCN(c3ccccc3)CC2)cc1 ?
Out: 0.169

In: Then O=C(COC(=O)CCc1c[nH]c2ccccc12)Nc1cccc(Cl)c1 ?
Out: 5.9

In: Then N#C[C@@H]1[C@@H](c2ccc(-c3ccccc3F)cc2)[C@@H](CO)N1C(=O)c1ccccn1 ?
Out: 0.692

In: Then Cn1cnc(S(=O)(=O)N2C[C@@H](O)COC[C@H]3O[C@@H](CC(=O)NCc4ccc(F)cc4)CC[C@@H]32)c1 ?
Out: -0.0625

In: Then CCC(C)CN1C(=O)CSCC1(C)C(=O)NCc1ccccc1 (stereo not given) ?
Out: 0.0415

====

Biological target: E-selectin (Homo sapiens)
Experiment: inducers of endothelial E-selectin expression – imaging, HUVEC, immunofluorescence imaging, single point, primary screen (AID 686992);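 also: measured in HUVEC primary endothelial cells; signal is the percent of cells scored E-selectin positive by PE staining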
Settings: at 7.58 µM, hits give high values, normalized: neutral wells 0, TNF-alpha wells 100
The campaign covered roughly 260,000 compounds. About 960 (0.37%) were called active. What follows is part of a selection rich in actives, with near analogues and random picks from the rest.
endpoint_name: activation (%)
All answers are understood in %, so give the number only.

Here's what some known entries look like.
O=C(c1ccco1)N1CCN(C(=S)Nc2cc(F)cc(F)c2)CC1 : -1.13
COc1ccc2sc(-c3ccc(N(C)C)cc3)c(-c3ccc4cc[nH]c4c3)c2c1 : 0.675
CNS(=O)(=O)c1ccc(NC(=O)C2CC(=O)N(c3ccc(Cl)cc3)C2)cc1 (stereo not given) : 35.7
CCc1nc2c(OCCOc3ccccc3)cccn2c1N(C)C(=O)c1ccc(OC)cc1 : -0.197

Below: the item to evaluate.
In: Recorded activation for COc1ccc2sc(-c3ccc(N(C)C)cc3)c(C#CCO)c2c1 , please?
Out: 0.712

====

Biological target: E-selectin (Homo sapiens)
Assay: inducers of endothelial E-selectin expression – imaging, HUVEC, immunofluorescence imaging, single point, primary screen (AID 686992);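 also: measured in HUVEC primary endothelial cells; signal is the percent of cells scored E-selectin positive by PE staining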
Details: at 7.58 µM, hits give high values, normalized: neutral wells 0, TNF-alpha wells 100
The campaign covered roughly 260,000 compounds. About 960 (0.37%) were called active. The sample holds actives, similar compounds and a random draw of the others, so the mix is not that of the screen.
endpoint_name: activation (%)
All answers are understood in %, so give the number only.

In: Recorded activation for COc1ccc2c3c([nH]c2c1)[C@@H](CO)N(C)CC31CCN(S(=O)(=O)c2ccc(C)cc2)CC1 , please?
Out: -0.271

In: Then COc1ccc(CN(C)C[C@H]2Oc3ccc(NC(=O)Cn4cnnn4)cc3CC(=O)N([C@@H](C)CO)C[C@@H]2C)cc1 ?
Out: 52.1

In: Then O=C1[C@@H](c2ccccc2)[C@@H](c2ccccc2)N1c1ccccc1 ?
Out: -0.064

In: Then O=C(c1ccccc1)N1C[C@H]2[C@@H](c3ccccc31)[C@H](CO)N2Cc1ccccc1F ?
Out: 0.376
